Let's look at some molecules and their measured pKi.
- system-name: CCR2 (Homo sapiens)
- Construct: Membranes were prepared from THP-1 cells; endogenous in cells
- test-summary: CCR2 receptor membrane binding assay ([125I]MCP-1, THP-1 cell membranes, SPA beads)
- condition-parameters: dissociation constant hKi; [125I]MCP-1 binding to THP-1 membranes
Keep it numeric: pKi is minus log10 of the concentration in mol/L.

>>> value("Cc1c(NCCc2ccc(Cl)c(Cl)c2)ncnc1C(=O)N1CCC(N2CCN(S(C)(=O)=O)CC2)CC1")
5.88
>>> value("Cc1c(NCCc2cccc(Cl)c2)ncnc1C(=O)N1CCC(N2CCC(O)CC2)CC1")
6.38
>>> value("Cc1c(NCc2cnc3ccccc3c2)ncnc1C(=O)N1CCC(N2CCC(N(C)S(C)(=O)=O)CC2)CC1")
5.94
>>> value("Cc1c(NCc2ccc(C(C)(C)C)cc2)ncnc1C(=O)N1CCC(N2CCC(S(=O)(=O)N(C)C)CC2)CC1")
6.18
>>> value("Cc1ccc(CNc2ncnc(C(=O)N3CCC(N4CCC(N(C)S(C)(=O)=O)CC4)CC3)c2C)cc1F")
6.75

Entry Cc1c(NCC2CCN(c3ccccc3)CC2)ncnc1C(=O)N1CCC(N2CCC(O)CC2)CC1 under CCR2 (Homo sapiens) had pKi of 5.48

Entry Cc1c(NCc2ccc(C(C)(C)C)cc2)ncnc1C(=O)N1CCC(N2CCC(c3ccccc3)CC2)CC1 under CCR2 (Homo sapiens) had pKi of 7.68

----------
- system-name: CCR2 (Homo sapiens, UniProt P41597)
- Construct: Membranes were prepared from THP-1 cells; endogenous in cells; host or cells: THP-1 cells (membrane preparation)
- Sequence (P41597 1-360 isoform P41597-2): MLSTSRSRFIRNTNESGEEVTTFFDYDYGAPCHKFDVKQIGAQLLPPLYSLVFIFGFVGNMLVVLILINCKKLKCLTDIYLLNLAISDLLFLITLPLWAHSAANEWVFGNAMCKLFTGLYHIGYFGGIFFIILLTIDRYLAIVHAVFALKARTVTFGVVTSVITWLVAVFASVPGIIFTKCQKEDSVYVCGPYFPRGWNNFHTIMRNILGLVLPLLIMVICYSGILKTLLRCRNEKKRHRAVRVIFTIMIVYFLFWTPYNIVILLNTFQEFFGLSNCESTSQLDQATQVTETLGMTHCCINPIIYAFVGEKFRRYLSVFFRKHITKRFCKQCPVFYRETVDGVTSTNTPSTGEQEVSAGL
- test-summary: CCR2 receptor membrane binding assay ([125I]MCP-1, THP-1 cell membranes, SPA beads)
- condition-parameters: @ 10 μM test compound; THP-1 membranes; read-out: CCR2 % ctrl @ 10 μM
Let's look at some molecules and their measured remaining activity at 10 µM.
Kindly provide the numeric value in % only, without the unit symbol.

Below are worked cases with known answers.
>>> value("CO[C@@H]1CN(C2CCN(C(=O)c3ncnc(NCc4ccc(Cl)c(Cl)c4)c3C)CC2)CC[C@H]1N(C)S(C)(=O)=O [Example 227]")
22
>>> value("Cc1c(NCC2CCN(c3ccccc3)CC2)ncnc1C(=O)N1CCC(N2CCC(O)CC2)CC1 [Example 113]")
46
>>> value("Cc1c(NC[C@@H]2CCC[C@@H](c3ccccc3)C2)ncnc1C(=O)N1CCC(N2CCC(N(C)S(C)(=O)=O)CC2)CC1 [Example 158]")
0
>>> value("Cc1c(NCc2ccc(C(C)(C)C)cc2)ncnc1C(=O)N1CCC(N2CCC(N(C)S(C)(=O)=O)CC2)CC1 [Example 1]")
1
>>> value("Cc1c(NCCc2ccc(Cl)c(Cl)c2)ncnc1C(=O)N1CCC(N2CC[C@@H](C(N)=O)C2)CC1 [Example 232]")
34

Could you now look at the following molecule, please?
Lab book: remaining activity at 10 µM of Cc1c(NCCc2ccc(Cl)c(Cl)c2)ncnc1C(=O)N1CCC(N2CC[C@@H](O)C2)CC1 [Example 165] noted as 15

----------
- system-name: CCR2 (Homo sapiens, UniProt P41597)
- Construct: Membranes were prepared from THP-1 cells; endogenous in cells
- test-summary: CCR2 receptor membrane binding assay ([125I]MCP-1, THP-1 cell membranes, SPA beads)
- condition-parameters: dissociation constant hKi; [125I]MCP-1 binding to THP-1 membranes
Let's look at some molecules and their measured Ki.
Kindly provide the numeric value in nM only, without the unit symbol.

>>> value("Cc1c(NCc2ccc(C(C)(C)C)cc2)ncnc1C(=O)N1CCC(NC2CCOc3ccccc32)CC1 (stereo not shown) [Example 228f]")
15
>>> value("Cc1c(NCc2ccc(C(C)(C)C)cc2)ncnc1C(=O)N1CCC(N(C)C2CCCOC2)CC1 (stereo not shown) [Example 228a]")
1560
>>> value("CNC(=O)C[C@@H]1CCCN1C1CCN(C(=O)c2ncnc(NCc3ccc(C(C)(C)C)cc3)c2C)CC1")
2150

Lab book: Ki of Cc1c(NCc2ccc(C(C)(C)C)cc2)ncnc1C(=O)N1CCC(N(C)C2CCOCC2)CC1 [Example 275a] noted as 29
